measured-target: furin, P09958;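 further: purified furin at 1:10 enzyme:substrate in 50 mM HEPES pH 7.5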
Sequence (P09958 whole entry): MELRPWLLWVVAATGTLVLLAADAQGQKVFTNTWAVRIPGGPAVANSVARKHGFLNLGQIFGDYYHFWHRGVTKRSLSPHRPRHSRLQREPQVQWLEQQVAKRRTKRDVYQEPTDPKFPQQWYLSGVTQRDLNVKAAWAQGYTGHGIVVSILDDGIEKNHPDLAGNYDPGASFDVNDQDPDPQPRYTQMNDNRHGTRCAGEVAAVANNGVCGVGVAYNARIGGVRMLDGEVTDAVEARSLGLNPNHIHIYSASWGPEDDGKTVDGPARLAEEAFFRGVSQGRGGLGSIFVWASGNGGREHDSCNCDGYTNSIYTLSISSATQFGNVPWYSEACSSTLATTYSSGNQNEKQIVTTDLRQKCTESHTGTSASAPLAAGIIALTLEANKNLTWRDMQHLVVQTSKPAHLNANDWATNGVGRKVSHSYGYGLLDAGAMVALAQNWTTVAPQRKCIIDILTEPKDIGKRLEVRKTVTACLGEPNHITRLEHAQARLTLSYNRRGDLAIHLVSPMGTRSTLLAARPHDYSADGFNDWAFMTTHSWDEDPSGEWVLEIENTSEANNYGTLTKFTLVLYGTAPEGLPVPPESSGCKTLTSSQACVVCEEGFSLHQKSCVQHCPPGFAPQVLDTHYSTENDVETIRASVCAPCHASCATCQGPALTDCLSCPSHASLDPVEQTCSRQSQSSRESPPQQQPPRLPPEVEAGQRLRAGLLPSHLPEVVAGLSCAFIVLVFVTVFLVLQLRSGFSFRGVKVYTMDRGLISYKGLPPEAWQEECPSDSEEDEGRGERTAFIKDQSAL
test-summary: furin cleavage Z-score vs untreated control; higher = more cleavage, active = 3.5 or more, inactive = 1 or less, 8 variable residues between constant flanks
measurement-conditions: 7.5 min
Some of the results follow. How many sequences the whole screen found active is unknown.
Mark one answer only. Choices: active, inactive

Task item: Which result was noted for this sequence in the test: CAAEQFKQKAAGNASASA [HC1023]
Reply: inactive

Task item: Queued: CADVMEECSQAGNASASA [HC1810]
Reply: inactive

Task item: Queued: CAWGNRFKKLAGNASASA [FS-315]
Reply: inactive

Task item: Queued: CASLKRQKRQAGNASASA [FS-502]
Reply: active

Task item: Queued: CAFTPCSAHLAGNASASA [HC2467]
Reply: inactive

Task item: Queued: CARACRLVHDAGNASASA [FS-2127]
Reply: inactive

Task item: Queued: CALSTTGEIPAGNASASA [HC844]
Reply: inactive

Task item: Queued: CALGNIIMFAAGNASASA [HC1575]
Reply: inactive

Task item: Queued: CAVVCGSMSYAGNASASA [HC82]
Reply: inactive

Task item: Queued: CALGPRFKRLAGNASASA [FS-269]
Reply: active

Task item: Queued: CARLRDSGRAAGNASASA [FS-85]
Reply: inactive

Task item: Queued: CARRSRCIRAAGNASASA [FS-1405]
Reply: active

Task item: Queued: CAGEVQIVSTAGNASASA [HC689]
Reply: inactive

Task item: Queued: CALGSRYKKAAGNASASA [FS-819]
Reply: inactive

Task item: Queued: CARRVRCSGAAGNASASA [FS-2802]
Reply: inactive

Task item: Queued: CASGSWLRDIAGNASASA [HC1147]
Reply: inactive

Task item: Queued: CAGGWVAAQLAGNASASA [HC1067]
Reply: inactive

Task item: Queued: CAITSCSSNVAGNASASA [HC1552]
Reply: inactive

Task item: Queued: CARRRRNVHDAGNASASA [FS-2375]
Reply: active

Task item: Queued: CATFALWRVSAGNASASA [HC1200]
Reply: inactive

Task item: Queued: CARRRRLLQQAGNASASA [FS-3167]
Reply: inactive

Task item: Queued: CAAEIRLKRAAGNASASA [FS-1442]
Reply: active

Task item: Queued: CAWGPRFKRLAGNASASA [FS-209]
Reply: active

Task item: Queued: CALGRRTKRAAGNASASA [FS-50]
Reply: active

Task item: Queued: CARRRRFSRTAGNASASA [FS-1482]
Reply: active

Task item: Queued: CAWGSRFKKLAGNASASA [FS-317]
Reply: inactive

Task item: Queued: CAKERREKRAAGNASASA [FS-601]
Reply: active

Task item: Queued: CAVQWMNRLIAGNASASA [HC1117]
Reply: inactive

Task item: Queued: CASLKRDVSLAGNASASA [FS-2473]
Reply: inactive

Task item: Queued: CAHRFAPPCKAGNASASA [HC1226]
Reply: inactive

Data origin: the supplement of paper PMC3545927
